- System: DU145 human prostate epithelial carcinoma cells
- Assay summary: MTT cell toxicity assay
- Format: cell-based
- Setup conditions: Homo sapiens, DU-145, 72 h, read-out: cancer cell growth inhibition, GI50
Property measured: log10(GI50) (log10 of the value in µM)

# Compound, Measured value
data = [
    ("COc1c(CCC[P+](c2ccccc2)(c2ccccc2)c2ccccc2)cc2c(c1OC)OCO2.[I-] [7b]", 0.51),
    ("COc1cc(CNC(=O)CCCCC[P+](c2ccccc2)(c2ccccc2)c2ccccc2)c(OC)c2c1OCO2.[Br-] [compound 17]", 1.05),
    ("COc1cc(COC(=O)CCCCC[P+](c2ccccc2)(c2ccccc2)c2ccccc2)c(OC)c2c1OCO2.[Br-] [compound 16]", 1.15),
    ("COc1cc(OCCCCCC[P+](c2ccccc2)(c2ccccc2)c2ccccc2)c(OC)c2c1OCO2.[Br-] [compound 11]", 1.32),
    ("Nc1ncnc2c1ccn2[C@@H]1O[C@H](CO)[C@@H](O)[C@H]1O [tubercidin, Tubercidin, reference compound]", -0.59),
    ("COc1cc(CCC[P+](c2ccccc2)(c2ccccc2)c2ccccc2)c(OC)c2c1OCO2.[I-] [7a]", 0.46),
    ("COc1cc(CCC[P+](c2ccccc2)(c2ccccc2)c2ccccc2)c(OC)c(OC)c1OC.[I-] [7d]", 0.91),
]

###

- Test system: A375 human skin epithelial malignant melanoma cells
- Assay summary: MTT cell toxicity assay
- Format: cell-based
- Setup conditions: Homo sapiens, A-375, 72 h, read-out: cancer cell growth inhibition, GI50
# GI50 per entry

# Record smiles, Unit abbrev, Inequality operator, GI50
rows = [
    ("COc1cc(CCC[P+](c2ccccc2)(c2ccccc2)c2ccccc2)c(OC)c2c1OCO2.[I-]", "nM", "=", 627),
    ("COc1c(CCCO)cc2c(c1OC)OCO2", "nM", ">", 250000),
    ("COc1cc(CCCO)c(OC)c(OC)c1OC", "nM", ">", 250000),
    ("COc1c(CCC[P+](c2ccccc2)(c2ccccc2)c2ccccc2)cc2c(c1OC)OCO2.[I-]", "nM", "=", 491),
    ("C=CCc1cc(OC)c2c(c1OC)OCO2", "nM", ">", 250000),
]

###

- Tested on: A375 human skin epithelial malignant melanoma cells
- Assay summary: MTT cell toxicity assay
- Type: cell-based
- Setup conditions: Homo sapiens, A-375, 72 h, read-out: cancer cell growth inhibition, GI50
Property measured: GI50 (nM)

# Molecule, Property measured, Unit abbrev, Measured value
records = [
    ("Nc1ncnc2c1ccn2[C@@H]1O[C@H](CO)[C@@H](O)[C@H]1O [tubercidin, Tubercidin, reference compound]", "GI50", "nM", 43),
    ("COc1cc(OCCCCCC[P+](c2ccccc2)(c2ccccc2)c2ccccc2)c(OC)c2c1OCO2.[Br-] [compound 11]", "GI50", "nM", 1930),
    ("COc1cc(CCC[P+](c2ccccc2)(c2ccccc2)c2ccccc2)c(OC)c(OC)c1OC.[I-] [7d]", "GI50", "nM", 2350),
]

###

- Test system: HCT-116 human colon epithelial colorectal carcinoma cells
- Assay summary: MTT cell toxicity assay
- Assay type: cell-based
- Setup conditions: Homo sapiens, HCT-116, 72 h, read-out: cancer cell growth inhibition, GI50
We begin with a simple list: items and their reported GI50.

# Compound, Inequality operator, GI50 (nM)
rows = [
    ("C=CCc1cc(OC)c2c(c1OC)OCO2", ">", 250000),
    ("COc1c(CCC[P+](c2ccccc2)(c2ccccc2)c2ccccc2)cc2c(c1OC)OCO2.[I-]", "=", 229),
    ("COc1cc(CCC[P+](c2ccccc2)(c2ccccc2)c2ccccc2)c(OC)c(OC)c1OC.[I-]", "=", 218),
    ("COc1cc(COC(=O)CCCCC[P+](c2ccccc2)(c2ccccc2)c2ccccc2)c(OC)c2c1OCO2.[Br-]", "=", 1070),
    ("COc1cc(CCCO)c(OC)c(OC)c1OC", ">", 250000),
    ("COc1cc(CCC[P+](c2ccccc2)(c2ccccc2)c2ccccc2)c(OC)c2c1OCO2.[I-]", "=", 263),
    ("COc1c(CCCO)cc2c(c1OC)OCO2", ">", 250000),
    ("COc1cc(CNC(=O)CCCCC[P+](c2ccccc2)(c2ccccc2)c2ccccc2)c(OC)c2c1OCO2.[Br-]", "=", 1050),
    ("C=CCc1cc(OC)c2c(c1)OCO2", ">", 250000),
    ("COc1cc(CCCO)cc2c1OCO2", ">", 250000),
    ("Nc1ncnc2c1ccn2[C@@H]1O[C@H](CO)[C@@H](O)[C@H]1O [tubercidin, Tubercidin, reference compound]", "=", 80),
    ("COc1cc(OCCCCCC[P+](c2ccccc2)(c2ccccc2)c2ccccc2)c(OC)c2c1OCO2.[Br-]", "=", 1950),
    ("COc1cc(CCCO)c(OC)c2c1OCO2", ">", 250000),
]

###

- Test system: PC-3 human prostate epithelial adenocarcinoma grade IV cells
- Assay summary: MTT cell toxicity assay
- Type: cell-based
- Setup conditions: Homo sapiens, 72 h, read-out: cancer cell growth inhibition, GI50
Collected GI50 values appear next to each entry.

# Record smiles, Inequality operator, GI50 [nM]
rows = [
    ("COc1cc(CCCO)cc2c1OCO2", ">", 250000),
    ("COc1cc(CNC(=O)CCCCC[P+](c2ccccc2)(c2ccccc2)c2ccccc2)c(OC)c2c1OCO2.[Br-]", "=", 2150),
    ("COc1c(CCC[P+](c2ccccc2)(c2ccccc2)c2ccccc2)cc2c(c1OC)OCO2.[I-]", "=", 555),
    ("C=CCc1cc(OC)c2c(c1)OCO2", ">", 250000),
]

###

- Test system: T-47D human breast carcinoma cells
- Assay summary: MTT cell toxicity assay
- Format: cell-based
- Setup conditions: Homo sapiens, T47D, 72 h, read-out: cancer cell growth inhibition, GI50
Property measured: GI50 (µM)

# Compound, Unit abbrev, Inequality operator, Measured value
rows = [
    ("COc1cc(CCCO)c(OC)c(OC)c1OC [4d]", "µM", ">", 250),
    ("COc1cc(CCCO)cc2c1OCO2 [4c]", "µM", ">", 250),
    ("COc1cc(CCC[P+](c2ccccc2)(c2ccccc2)c2ccccc2)c(OC)c(OC)c1OC.[I-] [7d]", "µM", "=", 0.5),
    ("Nc1ncnc2c1ccn2[C@@H]1O[C@H](CO)[C@@H](O)[C@H]1O [tubercidin, Tubercidin, reference compound]", "µM", "=", 0.013),
    ("C=CCc1cc(OC)c2c(c1)OCO2 [1c, myristicin]", "µM", "=", 113),
    ("COc1c(CCCO)cc2c(c1OC)OCO2 [4b]", "µM", ">", 250),
    ("COc1cc(CCCO)c(OC)c2c1OCO2 [4a]", "µM", ">", 250),
]

Origin of values: paper PMC8811894
